Target: T1, human activated protein C (human, UniProt P04070 43-197; P04070 212-461)
T1 construct: also called human aPC; human APC
Experiment: SPR (Biacore), 1:1 binding model
endpoint name: pKd
# reply with the number alone; pKd is -log10 of concentration in mol/L

Supply reported pKd belonging to this binder: Hu1573-4 (antibody, V domains shown, Humanized IgG, human gamma 1 / kappa constant regions by vectors pCP-hCg1 and pCP-hck; also called H1573VH.1B + H1573Vk.2A) VH: EVQLVESGGGLVQPGGSLRLSCAASGFTFSNYYLNWVRQAPGKGLEWVGDIRLKSNNYEKHYAESVKGRFTISRDDSKNSVYLQMNSLKTEDTAVYYCIREGDYFDYWGQGTTVTVSS VL: DIVLTQTPLSLSVTPGQPASISCRASESVDSFGATFMHWYLQKPGQPPQLLIYLASNLESGVPDRFSGSGSGTDFTLKISRVEAEDVGVYYCQQNNEDPYTFGQGTKLEIKR 8.29

Please give the documented pKd of Hu1573-15 (antibody, V domains shown, Humanized IgG, human gamma 1 / kappa constant regions by vectors pCP-hCg1 and pCP-hck; also called H1573VH.1F + H1573Vk.2) VH: EVQLVESGGGLVQPGGSLRLSCAASGFTFSNYYLNWVRQAPGKGLEWVADIRLKSNNYEKHYAESVKGRFTISRDDSKSSVYLQMNSLKTEDTAVYYCIREGDYFDYWGQGTTVTVSS VL: DIVMTQTPLSLSVTPGQPASISCRASESVDSFGATFMHWYLQKPGQPPQLLIYLASNLESGVPDRFSGSGSGTDFTLKISRVEAEDVGVYYCQQNNEDPYTFGQGTKLEIKR 8.21

Give the reported pKd for this binder. Hu1573-12 (antibody, V domains shown, Humanized IgG, human gamma 1 / kappa constant regions by vectors pCP-hCg1 and pCP-hck; also called H1573VH.1E + H1573Vk.2) VH: EVQLVESGGGLVQPGGSLRLSCAASGFTFSNYYLNWVRQAPGKGLEWVADIRLKSNNYEKHYAESVKGRFTISRDDSKNSVYLQMNSLKTEDTAVYYCIREGDYFDYWGQGTTVTVSS VL: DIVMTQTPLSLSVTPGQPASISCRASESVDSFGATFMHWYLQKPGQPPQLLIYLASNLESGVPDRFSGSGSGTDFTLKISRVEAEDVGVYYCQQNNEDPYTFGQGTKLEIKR 8.22
